- study.system: calcium channel (Oryctolagus cuniculus, UniProt P15381)
- Construct: from tissue; host or cells: rabbit heart membrane preparation
- Sequence (P15381 whole entry, other chains not shown): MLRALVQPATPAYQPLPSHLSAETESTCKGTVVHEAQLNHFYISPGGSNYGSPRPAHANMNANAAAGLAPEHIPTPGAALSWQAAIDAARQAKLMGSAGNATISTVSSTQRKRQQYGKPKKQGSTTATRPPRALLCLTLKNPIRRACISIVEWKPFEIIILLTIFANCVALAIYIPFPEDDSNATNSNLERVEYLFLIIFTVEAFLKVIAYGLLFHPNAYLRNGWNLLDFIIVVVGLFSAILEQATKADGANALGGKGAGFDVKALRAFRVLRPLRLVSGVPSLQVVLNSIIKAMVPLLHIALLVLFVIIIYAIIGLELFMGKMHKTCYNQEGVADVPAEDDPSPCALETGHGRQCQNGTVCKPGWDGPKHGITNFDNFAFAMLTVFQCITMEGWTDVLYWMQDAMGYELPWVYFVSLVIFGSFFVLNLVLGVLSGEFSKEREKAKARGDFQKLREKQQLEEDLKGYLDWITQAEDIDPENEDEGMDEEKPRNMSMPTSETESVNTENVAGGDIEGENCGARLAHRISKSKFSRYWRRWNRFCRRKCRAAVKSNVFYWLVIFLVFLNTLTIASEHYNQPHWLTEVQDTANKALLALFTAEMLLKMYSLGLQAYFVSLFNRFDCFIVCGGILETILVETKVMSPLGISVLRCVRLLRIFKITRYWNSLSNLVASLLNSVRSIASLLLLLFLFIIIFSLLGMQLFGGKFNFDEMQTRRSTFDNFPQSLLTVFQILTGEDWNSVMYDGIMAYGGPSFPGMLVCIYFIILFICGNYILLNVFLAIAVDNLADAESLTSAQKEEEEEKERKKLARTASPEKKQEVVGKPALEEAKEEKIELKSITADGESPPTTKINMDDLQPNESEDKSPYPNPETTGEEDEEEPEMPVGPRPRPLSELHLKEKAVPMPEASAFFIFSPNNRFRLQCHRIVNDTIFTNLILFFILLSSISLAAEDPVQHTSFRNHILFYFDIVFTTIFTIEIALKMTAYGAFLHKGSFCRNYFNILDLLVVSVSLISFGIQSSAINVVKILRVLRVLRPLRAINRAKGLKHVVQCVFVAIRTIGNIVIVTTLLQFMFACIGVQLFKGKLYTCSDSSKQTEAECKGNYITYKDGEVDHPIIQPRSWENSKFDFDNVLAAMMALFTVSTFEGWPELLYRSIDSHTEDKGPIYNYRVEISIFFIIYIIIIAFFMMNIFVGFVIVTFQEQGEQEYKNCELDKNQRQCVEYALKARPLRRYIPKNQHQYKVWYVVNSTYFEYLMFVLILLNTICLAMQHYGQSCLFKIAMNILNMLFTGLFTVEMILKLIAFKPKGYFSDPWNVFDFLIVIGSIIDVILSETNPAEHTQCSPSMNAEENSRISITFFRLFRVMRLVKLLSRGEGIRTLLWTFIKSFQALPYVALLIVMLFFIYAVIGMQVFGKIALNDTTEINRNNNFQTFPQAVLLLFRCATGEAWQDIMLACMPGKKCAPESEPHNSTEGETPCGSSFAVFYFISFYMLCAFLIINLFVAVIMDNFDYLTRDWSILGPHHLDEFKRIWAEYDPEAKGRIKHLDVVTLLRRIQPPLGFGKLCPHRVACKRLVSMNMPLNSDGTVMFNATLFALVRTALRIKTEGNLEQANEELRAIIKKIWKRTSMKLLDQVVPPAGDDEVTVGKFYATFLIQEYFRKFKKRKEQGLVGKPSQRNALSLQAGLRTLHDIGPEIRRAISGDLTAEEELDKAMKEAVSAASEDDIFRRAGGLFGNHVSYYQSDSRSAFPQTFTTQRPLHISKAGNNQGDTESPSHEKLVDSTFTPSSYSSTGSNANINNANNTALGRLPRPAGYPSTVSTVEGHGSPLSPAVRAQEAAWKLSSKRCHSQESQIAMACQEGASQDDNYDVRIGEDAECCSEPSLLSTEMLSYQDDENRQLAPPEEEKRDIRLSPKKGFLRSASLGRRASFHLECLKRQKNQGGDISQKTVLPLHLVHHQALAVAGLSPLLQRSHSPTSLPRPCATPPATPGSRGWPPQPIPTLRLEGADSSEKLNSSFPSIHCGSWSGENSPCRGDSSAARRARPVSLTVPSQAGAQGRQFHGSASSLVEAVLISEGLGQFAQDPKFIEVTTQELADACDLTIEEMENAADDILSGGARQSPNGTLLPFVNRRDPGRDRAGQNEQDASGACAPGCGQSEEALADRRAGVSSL
- Sequence (P13806 27-960 partner limits assumed, other chains not shown): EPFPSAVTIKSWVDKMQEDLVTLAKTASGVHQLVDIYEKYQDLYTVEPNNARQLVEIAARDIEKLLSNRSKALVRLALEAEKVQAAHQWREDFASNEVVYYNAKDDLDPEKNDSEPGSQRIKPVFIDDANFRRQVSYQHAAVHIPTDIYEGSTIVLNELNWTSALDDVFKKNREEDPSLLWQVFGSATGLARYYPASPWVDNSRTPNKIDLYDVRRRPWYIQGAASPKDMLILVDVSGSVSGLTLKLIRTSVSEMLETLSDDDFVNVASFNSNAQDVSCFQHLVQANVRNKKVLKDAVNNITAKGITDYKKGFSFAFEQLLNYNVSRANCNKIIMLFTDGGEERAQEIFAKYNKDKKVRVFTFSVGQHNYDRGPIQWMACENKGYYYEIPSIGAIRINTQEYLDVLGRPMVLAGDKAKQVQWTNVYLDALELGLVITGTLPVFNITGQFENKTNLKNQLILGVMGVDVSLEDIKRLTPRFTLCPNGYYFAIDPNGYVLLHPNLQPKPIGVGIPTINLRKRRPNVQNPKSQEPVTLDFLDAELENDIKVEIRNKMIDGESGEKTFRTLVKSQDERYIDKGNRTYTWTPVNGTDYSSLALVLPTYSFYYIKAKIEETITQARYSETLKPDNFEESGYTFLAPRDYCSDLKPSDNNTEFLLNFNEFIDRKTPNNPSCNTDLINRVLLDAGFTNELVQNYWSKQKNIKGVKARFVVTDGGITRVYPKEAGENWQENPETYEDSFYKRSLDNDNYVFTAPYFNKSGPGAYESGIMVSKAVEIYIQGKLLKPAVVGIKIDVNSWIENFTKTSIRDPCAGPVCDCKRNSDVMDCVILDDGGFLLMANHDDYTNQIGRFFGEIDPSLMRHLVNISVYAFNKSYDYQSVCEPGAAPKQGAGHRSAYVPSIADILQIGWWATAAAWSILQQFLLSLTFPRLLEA
- Sequence (P13806 961-1106 partner limits assumed, other chains not shown): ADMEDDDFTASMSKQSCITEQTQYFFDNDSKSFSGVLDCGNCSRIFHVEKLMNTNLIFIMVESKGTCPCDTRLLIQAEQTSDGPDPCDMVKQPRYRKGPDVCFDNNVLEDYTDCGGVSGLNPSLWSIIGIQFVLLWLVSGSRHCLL
- method.description: Assay for Inhibition of Nitrendipine Binding (3H-nitrendipine, heart membranes)
- reported.conditions: 3H-nitrendipine displacement, rabbit heart membranes; Tables 6-7
readout: log10(IC50) (log10 of the value in nM)
The figures below represent log10 of IC50, where IC50 is stated in nM.

Known results for compounds:
*Q* Look up log10(IC50) with calcium channel (Oryctolagus cuniculus, UniProt P15381) for this compound: CC1=C(C(=O)OCCCO)C(c2c(F)cccc2Cl)C2=C(CS(=O)(=O)CCS2(=O)=O)N1 (stereo not drawn)
*A* 3.08

*Q* Give the reported log10(IC50) for CC1=C(C(=O)OCCOC(=O)c2ccc(OC(C)C)cc2)C(c2c(F)cccc2Cl)C2=C(CS(=O)(=O)CCS2(=O)=O)N1 (stereo not drawn) (system: calcium channel (Oryctolagus cuniculus, UniProt P15381)).
*A* 1.30

Record log10(IC50) for all entries; do not skip any.
1. COc1cccc(C(=O)OCCOC(=O)C2=C(C)NC3=C(C2c2c(F)cccc2Cl)S(=O)(=O)CCS(=O)(=O)C3)c1 (stereo not drawn)
2. CC1=C(C(=O)OCCNC(=O)OC(C)(C)C)C(c2c(F)cccc2Cl)C2=C(CS(=O)(=O)CCS2(=O)=O)N1 (stereo not drawn)
3. CC1=C(C(=O)OCCC2CCOC2=O)C(c2cccc(Cl)c2Cl)C2=C(CS(=O)(=O)CCS2(=O)=O)N1 (stereo not drawn)
4. CC1=C(C(=O)OCCOC(=O)CN(C)C)C(c2c(F)cccc2Cl)C2=C(CS(=O)(=O)CCS2(=O)=O)N1 (stereo not drawn)

*A*
[1.61, 2.89, 2.29, 3.09]

Quick request: log10(IC50) for each listed item, please.
1. CC1=C(C(=O)OCCOC(=O)CNC(=O)OC(C)(C)C)C(c2c(F)cccc2Cl)C2=C(CS(=O)(=O)CCS2(=O)=O)N1 (stereo not drawn)
2. CC1=C(C(=O)OCc2oc(=O)oc2C)C(c2c(F)cccc2Cl)C2=C(CS(=O)(=O)CCS2(=O)=O)N1 (stereo not drawn)

*A*
[2.98, 2.62]

Go through the list and state log10(IC50) for each entry.
1. CCC(CC)C(=O)OCCOC(=O)C1=C(C)NC2=C(C1c1c(F)cccc1Cl)S(=O)(=O)CCS(=O)(=O)C2 (stereo not drawn)
2. CC1=C(C(=O)OCCOC(=O)C2CCCCCC2)C(c2c(F)cccc2Cl)C2=C(CS(=O)(=O)CCS2(=O)=O)N1 (stereo not drawn)
3. CC1=C(C(=O)OCC(=O)OC(C)(C)C)C(c2c(F)cccc2Cl)C2=C(CS(=O)(=O)CCS2(=O)=O)N1 (stereo not drawn)
4. CC1=C(C(=O)OCCC2CCOC2=O)C(c2c(F)cccc2Cl)C2=C(CS(=O)(=O)CCS2(=O)=O)N1 (stereo not drawn)

*A*
1: 1.11; 2: 1.58; 3: 2.55; 4: 3.23
